# Test system: Pro. vulgaris GN3027
# Test summary: Antibacterial activity (MIC), agar dilution
# Type: cell-based
# Measurement context: Proteus vulgaris, GN3027, 20 h, Pro. vulgaris GN3027; 10^6 cells per ml; 37° C., 20 hours; read-out: MIC
Assign MIC to each entry below.

> print(dat)
                        structure.as.smiles          assay.target  experimental.readout  value.reported
1  COc1ccc(-c2cc(=O)c(C(=O)O)cn2-c2ccc(O)cc2C)cc1  Pro. vulgaris GN3027                   MIC    ≤ 0.05 µg/mL
2  O=C(O)c1cn(-c2ccc(O)cc2)c(-c2ccc3ccsc3c2)cc1=O  Pro. vulgaris GN3027                   MIC    ≤ 0.05 µg/mL

Can you look up the measured MIC of `Cn1ccc2cc(-c3cc(=O)c(C(=O)O)cn3-c3ccc(O)cc3F)ccc21` for me?
≤ 0.05 µg/mL
